Value source: the supplement of paper PMC6555819

# Test system: PPARg:RXRa (NR concentration 180 nM, RXRa partner concentration 90 nM)
# experiment_summary: PBM binding z-score (relative to random genomic background probes); higher = stronger binding; sequences stand for … in GC…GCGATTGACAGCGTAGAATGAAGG
reported_metric: PBM binding z-score
Form field (numeric): enter value without unit.

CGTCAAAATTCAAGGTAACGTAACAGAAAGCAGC    0.678

Recorded PBM binding z-score (sequence `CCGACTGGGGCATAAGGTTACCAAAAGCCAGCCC` ): 2.34

Recorded PBM binding z-score (sequence `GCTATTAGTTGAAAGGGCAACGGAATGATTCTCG` ): 2.45

Recorded PBM binding z-score (sequence `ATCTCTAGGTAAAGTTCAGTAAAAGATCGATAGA` ): 2.91

Recorded PBM binding z-score (sequence `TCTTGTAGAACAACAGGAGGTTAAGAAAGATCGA` ): 0.33

Recorded PBM binding z-score (sequence `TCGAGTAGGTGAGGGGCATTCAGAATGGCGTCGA` ): 1.99

Recorded PBM binding z-score (sequence `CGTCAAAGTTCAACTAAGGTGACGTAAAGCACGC` ): 5.01

Recorded PBM binding z-score (sequence `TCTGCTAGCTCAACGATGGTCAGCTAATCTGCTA` ): -0.32

Recorded PBM binding z-score (sequence `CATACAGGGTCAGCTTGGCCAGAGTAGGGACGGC` ): 2.78

Recorded PBM binding z-score (sequence `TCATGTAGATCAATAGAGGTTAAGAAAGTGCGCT` ): 0.225

Recorded PBM binding z-score (sequence `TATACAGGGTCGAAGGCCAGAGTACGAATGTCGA` ): 2.45

Recorded PBM binding z-score (sequence `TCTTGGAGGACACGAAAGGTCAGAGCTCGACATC` ): 1.68

Recorded PBM binding z-score (sequence `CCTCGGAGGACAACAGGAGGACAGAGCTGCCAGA` ): 0.442

Recorded PBM binding z-score (sequence `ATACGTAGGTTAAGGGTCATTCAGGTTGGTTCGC` ): 7.56

Recorded PBM binding z-score (sequence `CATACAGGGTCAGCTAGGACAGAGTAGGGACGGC` ): 3.16

Recorded PBM binding z-score (sequence `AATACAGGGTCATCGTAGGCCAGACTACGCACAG` ): 6.77

Recorded PBM binding z-score (sequence `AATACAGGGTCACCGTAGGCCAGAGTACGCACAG` ): 7.71

Recorded PBM binding z-score (sequence `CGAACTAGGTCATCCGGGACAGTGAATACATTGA` ): 8.08

Recorded PBM binding z-score (sequence `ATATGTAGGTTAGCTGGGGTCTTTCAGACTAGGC` ): 2.84

---

# Tested on: RXRa DBDmut IVT, anti-RXR (DBD mutation: RXRa K156A/R161A, NR concentration 90 nM)
# experiment_summary: PBM binding z-score (relative to random genomic background probes); higher = stronger binding; sequences stand for … in GC…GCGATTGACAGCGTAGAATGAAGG
reported_metric: PBM binding z-score
Form field (numeric): enter value without unit.

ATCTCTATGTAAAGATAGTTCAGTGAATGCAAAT    0.0227
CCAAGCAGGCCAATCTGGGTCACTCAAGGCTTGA    0.0779
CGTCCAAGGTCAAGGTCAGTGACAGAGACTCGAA    3.72
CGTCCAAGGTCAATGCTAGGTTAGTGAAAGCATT    3.86
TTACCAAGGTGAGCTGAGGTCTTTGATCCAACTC    -0.584

Recorded PBM binding z-score (sequence `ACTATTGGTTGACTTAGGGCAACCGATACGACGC` ): 0.419

Recorded PBM binding z-score (sequence `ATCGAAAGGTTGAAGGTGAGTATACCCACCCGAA` ): -0.0221
